Target: Human full-length diacylglycerol:acylCoA acyltransferase 1 (DGAT-1) (Homo sapiens)
Sequence (O75907 1-488): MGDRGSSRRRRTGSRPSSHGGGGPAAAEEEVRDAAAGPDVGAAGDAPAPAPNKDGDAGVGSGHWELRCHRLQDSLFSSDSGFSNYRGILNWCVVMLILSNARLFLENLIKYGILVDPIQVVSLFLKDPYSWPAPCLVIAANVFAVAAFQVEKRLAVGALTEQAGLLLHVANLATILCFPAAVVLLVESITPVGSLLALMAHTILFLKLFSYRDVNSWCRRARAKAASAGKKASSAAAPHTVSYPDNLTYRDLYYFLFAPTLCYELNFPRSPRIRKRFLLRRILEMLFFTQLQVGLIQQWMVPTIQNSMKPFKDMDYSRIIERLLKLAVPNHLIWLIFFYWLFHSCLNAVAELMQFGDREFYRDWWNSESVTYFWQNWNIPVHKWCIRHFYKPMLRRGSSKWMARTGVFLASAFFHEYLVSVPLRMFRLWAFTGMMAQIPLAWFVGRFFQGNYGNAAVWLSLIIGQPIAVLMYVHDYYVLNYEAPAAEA
Experiment: In vitro assay for inhibition of DGAT-1 activity (DGAT 1 Reduced Microsome Multidose Assay)
Conditions: Trial 2 Human IC50, Trial 2: as Trial 4 except eleven concentrations of inhibitor instead of eight; average where n > 1
pIC50: −log10 of the molar value.
Label scheme for pIC50: lower than 7 is Not met, 7 and above is Met.

[
  {
    "molecule": "Nc1ncnc2c1C(=O)N(c1ccc(C3CCN(C(=O)CC4CCCO4)CC3)cc1)CCO2 (stereo not drawn)",
    "cat": "Met"
  },
  {
    "molecule": "C[C@@H]1CN(c2ccc(C(C)(C)C)cc2)C(=O)c2c(N)ncnc2O1",
    "cat": "Met"
  },
  {
    "molecule": "CC(C)[C@H](O)C(=O)N1CCC(c2ccc(N3CCOc4ncnc(N)c4C3=O)cc2)CC1",
    "cat": "Not met"
  },
  {
    "molecule": "Nc1ncnc2c1C(=O)N(c1ccc(C3CCN(C(=O)CC4CCCC4)CC3)cc1)CCO2",
    "cat": "Met"
  },
  {
    "molecule": "Nc1ncnc2c1C(=O)N(c1ccc(C3CCN(C(=O)CC4CCCOC4)CC3)cc1)CCO2 (stereo not drawn)",
    "cat": "Not met"
  },
  {
    "molecule": "CC(C)c1ccc(N2CCOc3ncnc(N)c3C2=O)cc1",
    "cat": "Met"
  },
  {
    "molecule": "Nc1ncnc2c1C(=O)N(c1ccc([C@H]3CC[C@H](CCO)CC3)cc1)CCO2",
    "cat": "Met"
  },
  {
    "molecule": "Nc1ncnc2c1C(=O)N(c1ccc(C3CCN(C(=O)Cc4ccccc4)CC3)cc1)CCO2",
    "cat": "Met"
  },
  {
    "molecule": "CC(C)(C)OC(=O)N1CCC(c2ccc(N3CCOc4ncnc(N)c4C3=O)cc2)CC1",
    "cat": "Met"
  },
  {
    "molecule": "CC(C)(C#N)c1ccc(N2CCOc3ncnc(N)c3C2=O)cc1",
    "cat": "Not met"
  }
]

----------
target: Human full-length diacylglycerol:acylCoA acyltransferase 1 (DGAT-1) (Homo sapiens); assay: In vitro assay for inhibition of DGAT-1 activity (DGAT 1 Reduced Microsome Multidose Assay); settings: Trial 4 Human IC50, Trial 4: eight concentrations of inhibitor, microsomes 5 μg/mL; average where n > 1
readout name: log10 IC50 (log10 of the value in nM)

[
  {
    "substance smiles": "C[C@@H]1CN(c2ccc(C(C)(C)C(=O)O)cc2)C(=O)c2c(N)ncnc2O1",
    "readout name": "log10 IC50",
    "quantitative result": 1.30
  },
  {
    "substance smiles": "Cc1ccc(N2C[C@@H](C)Oc3ncnc(N)c3C2=O)cc1",
    "readout name": "log10 IC50",
    "quantitative result": 1.72
  },
  {
    "substance smiles": "COC(C)(C)Cc1ccc(N2C[C@@H](C)Oc3ncnc(N)c3C2=O)cc1",
    "readout name": "log10 IC50",
    "quantitative result": 1.66
  },
  {
    "substance smiles": "C[C@@H]1CN(c2ccc([C@H](O)C(C)(C)C)cc2)C(=O)c2c(N)ncnc2O1",
    "readout name": "log10 IC50",
    "quantitative result": 1.35
  },
  {
    "substance smiles": "C[C@@H]1CN(c2ccc(C(O)(C(F)(F)F)C(F)(F)F)cc2)C(=O)c2c(N)ncnc2O1",
    "readout name": "log10 IC50",
    "quantitative result": 1.60
  },
  {
    "substance smiles": "Cc1noc(C[C@H]2CC[C@H](c3ccc(N4C[C@@H](C)Oc5ncnc(N)c5C4=O)cc3)CC2)n1",
    "readout name": "log10 IC50",
    "quantitative result": 0.91
  },
  {
    "substance smiles": "COc1nc(N)c2c(n1)O[C@H](C)CN(c1ccc(C(C)(C)C)cc1)C2=O",
    "readout name": "log10 IC50",
    "quantitative result": 1.65
  },
  {
    "substance smiles": "C[C@@H]1CN(c2ccc(C(C)(C)O)cc2)C(=O)c2c(N)ncnc2O1",
    "readout name": "log10 IC50",
    "quantitative result": 1.79
  },
  {
    "substance smiles": "C[C@@H]1CN(c2ccc(C(=O)N(C)C)cc2)C(=O)c2c(N)ncnc2O1",
    "readout name": "log10 IC50",
    "quantitative result": 3.22
  },
  {
    "substance smiles": "COC(C)(C)c1ccc(N2C[C@@H](C)Oc3ncnc(N)c3C2=O)cc1",
    "readout name": "log10 IC50",
    "quantitative result": 1.54
  },
  {
    "substance smiles": "C[C@@H]1CN(c2ccc(C(C)(C)C(N)=O)cc2)C(=O)c2c(N)ncnc2O1",
    "readout name": "log10 IC50",
    "quantitative result": 1.38
  },
  {
    "substance smiles": "C[C@@H]1CN(c2ccc(C(C)(C)F)cc2)C(=O)c2c(N)ncnc2O1",
    "readout name": "log10 IC50",
    "quantitative result": 1.66
  },
  {
    "substance smiles": "C[C@@H]1CN(c2ccc(C(C)(C)CO)cc2)C(=O)c2c(N)ncnc2O1",
    "readout name": "log10 IC50",
    "quantitative result": 1.49
  },
  {
    "substance smiles": "C[C@@H]1CN(c2ccc(C3(C(N)=O)CCCC3)cc2)C(=O)c2c(N)ncnc2O1",
    "readout name": "log10 IC50",
    "quantitative result": 2.07
  },
  {
    "substance smiles": "CCOC(C)(C)c1ccc(N2C[C@@H](C)Oc3ncnc(N)c3C2=O)cc1",
    "readout name": "log10 IC50",
    "quantitative result": 1.63
  },
  {
    "substance smiles": "CCc1ccc(N2C[C@@H](C)Oc3ncnc(N)c3C2=O)cc1",
    "readout name": "log10 IC50",
    "quantitative result": 1.14
  }
]

----------
target: Human full-length diacylglycerol:acylCoA acyltransferase 1 (DGAT-1) (Homo sapiens); assay: In vitro assay for inhibition of DGAT-1 activity (DGAT 1 Reduced Microsome Multidose Assay); conditions: Trial 3 Human IC50, Trial 3: as Trial 2 except compounds serially diluted in a different laboratory; average where n > 1
Here, each record is paired with measured IC50 data.
readout name: IC50 (nM)

[
  {
    "molecule": "CS(=O)(=O)CC(=O)N1CCC(c2ccc(N3CCOc4ncnc(N)c4C3=O)cc2)CC1",
    "units of measure": "nM",
    "quantitative result": 217
  },
  {
    "molecule": "Nc1ncnc2c1C(=O)N(c1ccc(C3CCN(C(=O)C4CCCO4)CC3)cc1)CCO2 (stereo not shown)",
    "units of measure": "nM",
    "quantitative result": 157
  },
  {
    "molecule": "Nc1ncnc2c1C(=O)N(c1ccc(C3CCN(C(=O)Cc4ncccn4)CC3)cc1)CCO2",
    "units of measure": "nM",
    "quantitative result": 234
  },
  {
    "molecule": "Cc1cc(C(=O)N2CCC(c3ccc(N4CCOc5ncnc(N)c5C4=O)cc3)CC2)no1",
    "units of measure": "nM",
    "quantitative result": 224
  }
]

----------
target: Human full-length diacylglycerol:acylCoA acyltransferase 1 (DGAT-1) (Homo sapiens, UniProt O75907); assay: In vitro assay for inhibition of DGAT-1 activity (DGAT 1 Reduced Microsome Multidose Assay); conditions: Trial 1 Human IC50, Trial 1: as Trial 4 except microsomes at 25 μg/mL instead of 5 μg/mL; average where n > 1

[
  {
    "compound": "C[C@@H]1COCCN1C(=O)C[C@H]1CC[C@H](c2ccc(N3CCOc4ncnc(N)c4C3=O)cc2)CC1 [Example 6BD]",
    "IC50 [nM]": 47.2
  },
  {
    "compound": "CCCN(CCO)C(=O)C[C@H]1CC[C@H](c2ccc(N3CCOc4ncnc(N)c4C3=O)cc2)CC1 [Example 6AJ]",
    "IC50 [nM]": 65.5
  },
  {
    "compound": "CN(C(=O)C[C@H]1CC[C@H](c2ccc(N3CCOc4ncnc(N)c4C3=O)cc2)CC1)C1CCOCC1 [Example 6H]",
    "IC50 [nM]": 53.5
  },
  {
    "compound": "Cc1nnc2n1CCN(C(=O)C[C@H]1CC[C@H](c3ccc(N4CCOc5ncnc(N)c5C4=O)cc3)CC1)C2 [Example 6Q]",
    "IC50 [nM]": 240
  },
  {
    "compound": "CN(CCc1ccccn1)C(=O)C[C@H]1CC[C@H](c2ccc(N3CCOc4ncnc(N)c4C3=O)cc2)CC1 [Example 6W]",
    "IC50 [nM]": 77.7
  },
  {
    "compound": "CCN(C(=O)C[C@H]1CC[C@H](c2ccc(N3CCOc4ncnc(N)c4C3=O)cc2)CC1)C(C)(C)CO [Example 6U]",
    "IC50 [nM]": 129
  },
  {
    "compound": "Nc1ncnc2c1C(=O)N(c1ccc([C@H]3CC[C@H](CC(=O)N4CCCC4CO)CC3)cc1)CCO2 (stereo partly drawn) [Example 6X]",
    "IC50 [nM]": 100
  },
  {
    "compound": "N#CC1CCN(C(=O)C[C@H]2CC[C@H](c3ccc(N4CCOc5ncnc(N)c5C4=O)cc3)CC2)CC1 [Example 6G]",
    "IC50 [nM]": 50.1
  },
  {
    "compound": "CCCCCN(CCO)C(=O)C[C@H]1CC[C@H](c2ccc(N3CCOc4ncnc(N)c4C3=O)cc2)CC1 [Example 6V]",
    "IC50 [nM]": 30.7
  },
  {
    "compound": "CN(Cc1ccc(F)cc1)C(=O)C[C@H]1CC[C@H](c2ccc(N3CCOc4ncnc(N)c4C3=O)cc2)CC1 [Example 6AK]",
    "IC50 [nM]": 18.1
  },
  {
    "compound": "CC(=O)N1CCN(C(=O)C[C@H]2CC[C@H](c3ccc(N4CCOc5ncnc(N)c5C4=O)cc3)CC2)CC1 [Example 6Y]",
    "IC50 [nM]": 167
  },
  {
    "compound": "CCOC1CCN(C(=O)C[C@H]2CC[C@H](c3ccc(N4CCOc5ncnc(N)c5C4=O)cc3)CC2)CC1 [Example 6AB]",
    "IC50 [nM]": 54.7
  },
  {
    "compound": "COC[C@H]1CCN(C(=O)C[C@H]2CC[C@H](c3ccc(N4CCOc5ncnc(N)c5C4=O)cc3)CC2)C1 [Example 6F]",
    "IC50 [nM]": 84.9
  },
  {
    "compound": "Nc1ncnc2c1C(=O)N(c1ccc([C@H]3CC[C@H](CC(=O)N4CCC[C@@H](O)C4)CC3)cc1)CCO2 [Example 6O]",
    "IC50 [nM]": 162
  },
  {
    "compound": "COCCN(C)C(=O)C[C@H]1CC[C@H](c2ccc(N3CCOc4ncnc(N)c4C3=O)cc2)CC1 [Example 6J]",
    "IC50 [nM]": 51
  },
  {
    "compound": "CN(CC1CCOCC1)C(=O)C[C@H]1CC[C@H](c2ccc(N3CCOc4ncnc(N)c4C3=O)cc2)CC1 [Example 6D]",
    "IC50 [nM]": 103
  },
  {
    "compound": "CC1(O)CCN(C(=O)C[C@H]2CC[C@H](c3ccc(N4CCOc5ncnc(N)c5C4=O)cc3)CC2)C1 (stereo partly drawn) [Example 6AR]",
    "IC50 [nM]": 85.3
  },
  {
    "compound": "CCN(CCCCO)C(=O)C[C@H]1CC[C@H](c2ccc(N3CCOc4ncnc(N)c4C3=O)cc2)CC1 [Example 6N]",
    "IC50 [nM]": 37.5
  },
  {
    "compound": "Nc1ncnc2c1C(=O)N(c1ccc([C@H]3CC[C@H](CC(=O)N4CC(F)C4)CC3)cc1)CCO2 [Example 6AM]",
    "IC50 [nM]": 139
  },
  {
    "compound": "CCC1(CO)CCN(C(=O)C[C@H]2CC[C@H](c3ccc(N4CCOc5ncnc(N)c5C4=O)cc3)CC2)C1 (stereo partly drawn) [Example 6R]",
    "IC50 [nM]": 17.5
  },
  {
    "compound": "Cc1cc(CN(C)C(=O)C[C@H]2CC[C@H](c3ccc(N4CCOc5ncnc(N)c5C4=O)cc3)CC2)ccn1 [Example 6AZ]",
    "IC50 [nM]": 67
  },
  {
    "compound": "CCC(C)CN(CCO)C(=O)C[C@H]1CC[C@H](c2ccc(N3CCOc4ncnc(N)c4C3=O)cc2)CC1 (stereo partly drawn) [Example 6AH]",
    "IC50 [nM]": 67
  },
  {
    "compound": "CC(C)(O)CC[C@H]1CC[C@H](c2ccc(N3CCOc4ncnc(N)c4C3=O)cc2)CC1 [Example 1A-1]",
    "IC50 [nM]": 104
  },
  {
    "compound": "CCN(C(=O)C[C@H]1CC[C@H](c2ccc(N3CCOc4ncnc(N)c4C3=O)cc2)CC1)[C@H](C)CO [Example 6Z]",
    "IC50 [nM]": 89.6
  }
]

Source listed as patent US20100204119A1.
